- ASSAYED SYSTEM: NOS1, P29475
- Sequence (P29475 9-101): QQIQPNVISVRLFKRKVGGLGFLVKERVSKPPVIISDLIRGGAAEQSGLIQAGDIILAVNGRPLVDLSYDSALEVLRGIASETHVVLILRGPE
- PROTOCOL NOTES: holdup assay
- Parameters: key: below the threshold = too weak to quantify, mostly under pKd 3.1 to 4
- CONDITION DETAILS: plain residues with an end cap or a label only (N-terminal biotin on a linker: ado-ado)
VALUE TYPE: pKd

EKPIDSETKM [SLC1A3, P43003]	below the threshold
VKQYADVEGF [HNRNPK, P61978;P61978-2]	below the threshold
TFSRRPKTRV [CD226, Q15762]	4.17
TKEIPNCTSV [SORCS3, Q9UPU3]	3.57
KAEEKPPSKV [SCN4B, Q8IWT1]	below the threshold
LLQEEWETVM [PTH1R, Q03431]	below the threshold
FVFESRKEIL [TBPL1, P62380]	3.68
AHGSTRDQSI [KCNB1, Q14721]	below the threshold
